These compounds were tested on Cannabinoid receptor 1 (Mus musculus, UniProt P47746); pKi is the recorded read-out.
Sequence (P47746 whole entry): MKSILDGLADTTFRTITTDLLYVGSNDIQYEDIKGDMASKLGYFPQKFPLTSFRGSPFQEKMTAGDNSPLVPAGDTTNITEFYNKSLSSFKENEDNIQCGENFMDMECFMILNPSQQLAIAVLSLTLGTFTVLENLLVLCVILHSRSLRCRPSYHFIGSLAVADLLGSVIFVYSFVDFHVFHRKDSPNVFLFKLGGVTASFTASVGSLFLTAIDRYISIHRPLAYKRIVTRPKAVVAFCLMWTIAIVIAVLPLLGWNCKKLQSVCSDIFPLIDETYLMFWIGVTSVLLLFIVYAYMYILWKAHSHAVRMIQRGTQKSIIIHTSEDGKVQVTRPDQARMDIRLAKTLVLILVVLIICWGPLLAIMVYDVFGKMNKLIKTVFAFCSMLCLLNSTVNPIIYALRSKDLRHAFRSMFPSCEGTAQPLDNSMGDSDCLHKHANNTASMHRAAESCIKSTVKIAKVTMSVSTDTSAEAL
pKi: −log10 of the molar value.

| smiles.code | target.or.test.system | pKi |
| --- | --- | --- |
| Cc1c(C(=O)CC2CCCCC2)nn(-c2ccc(Cl)cc2Cl)c1-c1ccc(Cl)cc1 | Cannabinoid receptor 1 (Mus musculus, UniProt P47746) | 7.34 |
| Cc1c(/C=C/C2CCCCC2)nn(-c2ccc(Cl)cc2Cl)c1-c1ccc(Cl)cc1 | Cannabinoid receptor 1 (Mus musculus, UniProt P47746) | 7.95 |
| Cc1c(/C(F)=C\C2CCCCC2)nn(-c2ccc(Cl)cc2Cl)c1-c1ccc(Cl)cc1 | Cannabinoid receptor 1 (Mus musculus, UniProt P47746) | 6.39 |

###

species on record: Mus musculus; assay: Selectivity ratio of Ki for CB1 receptor in CD1 mouse brain membrane without cerebellum to Ki for CB2 receptor in CD1 mouse spleen membrane; format: cell membranes

| compound | value.qualifier | Ratio Ki |
| --- | --- | --- |
| Cc1c(/C(F)=C/C2CCCCC2)nn(-c2ccc(Cl)cc2Cl)c1-c1ccc(Cl)cc1 | = | 0.013 |
| Cc1c(C(=O)CC2CCCCC2)nn(-c2ccc(Cl)cc2Cl)c1-c1ccc(Cl)cc1 | = | 0.021 |
| Cc1c(C(NN2CCCCC2)C(F)(F)F)nn(-c2ccc(Cl)cc2Cl)c1-c1ccc(Cl)cc1 (racemic) | < | 0.057 |
| Cc1c(/C(F)=C\C2CCCCC2)nn(-c2ccc(Cl)cc2Cl)c1-c1ccc(Cl)cc1 | = | 0.103 |
| Cc1c(/C=C/C2CCCCC2)nn(-c2ccc(Cl)cc2Cl)c1-c1ccc(Cl)cc1 | = | 0.003 |

###

These molecules were tested on Cannabinoid receptor 2 (Mus musculus, UniProt P47936); pKi is the recorded read-out.
Sequence (P47936 whole entry): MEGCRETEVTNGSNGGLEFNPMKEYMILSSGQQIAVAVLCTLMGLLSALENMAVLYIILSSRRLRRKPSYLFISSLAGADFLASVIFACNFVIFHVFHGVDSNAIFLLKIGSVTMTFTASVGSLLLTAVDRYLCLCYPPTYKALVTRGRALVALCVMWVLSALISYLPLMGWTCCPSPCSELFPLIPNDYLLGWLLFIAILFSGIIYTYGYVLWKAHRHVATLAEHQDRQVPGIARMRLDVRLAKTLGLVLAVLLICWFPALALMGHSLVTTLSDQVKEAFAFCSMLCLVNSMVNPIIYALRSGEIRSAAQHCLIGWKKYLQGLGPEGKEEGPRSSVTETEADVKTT
pKi: −log10 of the molar value.

| smiles.code | pKi |
| --- | --- |
| Cc1c(/C(F)=C\C2CCCCC2)nn(-c2ccc(Cl)cc2Cl)c1-c1ccc(Cl)cc1 | 5.40 |
| Cc1c(/C=C/C2CCCCC2)nn(-c2ccc(Cl)cc2Cl)c1-c1ccc(Cl)cc1 | 5.42 |

Source: ChEMBL document CHEMBL2331495
